From: patent EP3177293B1

Protein target, amino acids: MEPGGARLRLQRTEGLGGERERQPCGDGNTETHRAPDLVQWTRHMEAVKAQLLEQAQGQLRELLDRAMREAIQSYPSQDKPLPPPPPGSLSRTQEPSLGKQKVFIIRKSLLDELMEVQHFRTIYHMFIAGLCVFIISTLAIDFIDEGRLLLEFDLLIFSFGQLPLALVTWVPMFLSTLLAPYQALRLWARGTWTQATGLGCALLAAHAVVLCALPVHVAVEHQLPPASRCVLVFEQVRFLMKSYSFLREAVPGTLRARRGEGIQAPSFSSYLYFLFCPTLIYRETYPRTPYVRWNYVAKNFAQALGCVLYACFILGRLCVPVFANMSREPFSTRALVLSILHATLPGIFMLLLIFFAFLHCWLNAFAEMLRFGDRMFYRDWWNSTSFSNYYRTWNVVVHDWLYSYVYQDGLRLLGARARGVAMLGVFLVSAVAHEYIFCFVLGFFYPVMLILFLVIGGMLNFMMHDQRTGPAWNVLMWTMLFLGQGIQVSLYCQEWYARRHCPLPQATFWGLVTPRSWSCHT
valueType: IC50

The measured IC50 associated with Cc1nc(C)c(-c2ccc([C@H]3CC[C@H](CC(=O)O)CC3)cc2)nc1C(N)=O reads > 35 µM
